Reference source for all entries: patent US20150274777A1

So I've got a bunch of compounds here, and I need their pEC50 values.
System: IP10 level in PBMCs stimulated with CpG Type A
protocol.text: PBMC IP-10 Assay
Assay type: cell-based
test.conditions: CpG Type A 2.5 μM
Answers are plain numbers, as −log10 of the molar value.

Known results for compounds:
Please report the recorded pEC50 for "COc1ccc(C[C@H](NC(=O)[C@H](C)NS(=O)(=O)c2ccccc2)C(=O)N[C@@H](Cc2ccccc2)C(=O)C(=O)NCc2ccccc2)cc1" .
5.64

Report pEC50 for "COc1ccc(C[C@H](NC(=O)[C@H](C)NC(=O)C2Cc3ccccc3C2)C(=O)N[C@@H](Cc2ccccc2)C(=O)C(=O)NCc2ccccc2)cc1" please.
6.16

Which pEC50 value belongs to "C[C@H](NC(=O)N1Cc2ccccc2C1)C(=O)N[C@@H](Cc1ccccc1)C(=O)N[C@@H](Cc1ccccc1)C(=O)C(=O)NCc1ccccc1" ?
5.35

Entry "CCn1nccc1C(=O)N[C@@H](C)C(=O)N[C@@H](Cc1ccccc1)C(=O)N[C@@H](Cc1ccccc1)C(=O)C(=O)NCc1ccccc1" : reported pEC50 = ?
5.46

Param item = "C[C@H](NC(=O)OCc1ccccc1)C(=O)N[C@@H](Cc1c[nH]c2ccccc12)C(=O)N[C@@H](Cc1ccccc1)C(=O)C(=O)N(C)Cc1ccccc1" ; retrieve measured pEC50.
4.99

Query (compound): C[C@H](NC(=O)OCc1ccccc1)C(=O)NC(CC(F)(F)F)C(=O)N[C@@H](Cc1ccccc1)C(=O)C(=O)NCc1ccccc1 (some centres unmarked) ; field requested: pEC50
5.30

Request the reported pEC50 associated with "CCCC[C@H](NC(=O)[C@H](Cc1c[nH]c2ccccc12)NC(=O)[C@H](C)NC(=O)c1ccnn1C)C(=O)C(=O)NCc1ccccc1"
5.40

Here is the next item to consider.
# input compound: "C[C@H](NC(=O)c1ccnn1C)C(=O)N[C@@H](Cc1c[nH]c2ccccc12)C(=O)N[C@@H](Cc1ccccc1)C(=O)C(=O)NCc1ccccc1" ; wanted: its pEC50
5.39
